Where these numbers come from: ChEMBL document CHEMBL1201862

Tested on: BJ
MEASUREMENT_PROTOCOL: cells
Assay type: functional, cell-based
CONDITION: Homo sapiens
Calls of active or inactive are those of the source. No stated cut-off is given here; in the data, actives have a measured EC50 and inactives only a lower limit.
Provide the recorded EC50 for the entries that follow.

Below, each entry is followed by its recorded EC50 result.
[[record]]
compound = "CCOC(=O)Nc1nc(-c2ccccc2)c(C(=O)c2ccc(Cl)cc2)s1"
assay_value = "15.6 µM (active)"

[[record]]
compound = "COc1cccc2sc(Nc3nc4ccc(NC(C)=O)cc4s3)nc12"
assay_value = "28.2 µM (active)"

[[record]]
compound = "O=C(c1cc(-c2ccncc2)nc2c(Cl)cccc12)N1CCN(c2ccccc2F)CC1"
assay_value = "18.9 µM (active)"


Quick batch: EC50 for everything below.
1. O=[N+]([O-])c1ccccc1N/N=C\c1ccccc1Cl
2. CC(=O)NC(c1ccc2ccccc2c1)c1ccc2cccnc2c1O (configuration not stated)
3. CCN1C/C(=C/c2ccc(OC)c(O)c2)C(=O)/C(=C/c2ccc(OC)c(O)c2)C1
4. Cc1cccc2cc(C#N)c(SCC(=O)N3CC(=O)Nc4ccccc43)nc12

["103 µM (active)", "6.35 µM (active)", "1.35 µM (inconclusive)", "18 µM (active)"]
